system: 362531-283-R-J2-PDC complex spheroid viability; assay: Anticancer human tumor 362531-283-R-J2-PDC patient-derived colon adenocarcinoma cell line growth inhibition [RAS]; conditions: second compound 3.16 µM; first compound 10 µM; stronger effect = lower value
Each entry below lists one item and its recorded viability, T/C value.

Below, 4 compounds whose answers are already recorded.
- compound: "CC(Nc1ccc2c(c1)OCCn1cc(N3C(=O)OCC3C(F)F)nc1-2)C(N)=O (stereo not given) + C#Cc1c(F)ccc2cc(O)cc(-c3ncc4c(N5CC6CCC(C5)N6)nc(OCC56CCCN5CC(F)C6)nc4c3F)c12"
  data_value: "4.5%"
- compound: "CCC(CC)c1cc(NC2CCC(N)C2)n2nccc2n1 (stereo not given) + C#Cc1c(F)ccc2cc(O)cc(-c3ncc4c(N5CC6CCC(C5)N6)nc(OCC56CCCN5CC(F)C6)nc4c3F)c12"
  data_value: "3.27%"
- compound: "Cc1nc(N2CCC3(CC2)COC(C)C3N)c(CO)nc1Sc1ccnc(N)c1Cl (stereo not given) + C#Cc1c(F)ccc2cc(O)cc(-c3ncc4c(N5CC6CCC(C5)N6)nc(OCC56CCCN5CC(F)C6)nc4c3F)c12"
  data_value: "6.04%"
- compound: "C[C@@H](NC(=O)c1ncnc(N)c1Cl)c1ncc(C(=O)Nc2cc(C(F)(F)F)c(Cl)cn2)s1 + C#Cc1c(F)ccc2cc(O)cc(-c3ncc4c(N5CC6CCC(C5)N6)nc(OCC56CCCN5CC(F)C6)nc4c3F)c12"
  data_value: "47.2%"

Attention now shifts to the item below.
GET viability, T/C | system: 362531-283-R-J2-PDC complex spheroid viability | item: NC1c2ccccc2OC12CCN(c1cnc3c(N4CCCc5ncccc54)n[nH]c3n1)CC2 (stereo not given) + C#Cc1c(F)ccc2cc(O)cc(-c3ncc4c(N5CC6CCC(C5)N6)nc(OCC56CCCN5CC(F)C6)nc4c3F)c12
1.34%

----------
test system: 362531-283-R-J2-PDC complex spheroid viability; experiment: Anticancer human tumor 362531-283-R-J2-PDC cell line growth inhibition [RAS]; conditions: second compound 0.00949 µM; first compound 0.0316 µM; stronger effect = lower value;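 note: spheroids exposed to the agents for 7 days before readout; luminescence viability as percent of DMSO vehicle control wells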
measurement_name: viability, T/C (%)
Numeric only. Scale: %

- compound: "C=CC(=O)N1CCN(c2nc(OCC3CCCN3C)nc3c(F)c(-c4nc(N)cc(C)c4C(F)(F)F)c(Cl)cc23)C(C)C1 (stereo not given) + CCn1c(-c2cc(N3CCN(C)CC3)cnc2C(C)OC)c2c3cc(ccc31)-c1csc(n1)CC(NC(=O)C1CC1C)C(=O)N1CCCC(N1)C(=O)OCC(C)(C)C2"
  viability, T/C / %: 104
- compound: "C[C@@H](NC(=O)c1ncnc(N)c1Cl)c1ncc(C(=O)Nc2cc(C(F)(F)F)c(Cl)cn2)s1 + CCn1c(-c2cc(N3CCN(C)CC3)cnc2C(C)OC)c2c3cc(ccc31)-c1csc(n1)CC(NC(=O)C1CC1C)C(=O)N1CCCC(N1)C(=O)OCC(C)(C)C2"
  viability, T/C / %: 94

Look up and state reported viability, T/C for CC(=O)OC12COC1CC(O)C1(C)C(=O)C(O)C3=C(C)C(OC(=O)C(O)C(NC(=O)OC(C)(C)C)c4ccccc4)CC(O)(C(OC(=O)c4ccccc4)C21)C3(C)C (stereo not given) + CCn1c(-c2cccnc2C(C)OC)c2c3cc(ccc31)N1CCOC(CC(NC(=O)C(C(C)C)N(C)C(=O)C3(F)CCN(C(=O)C#CC(C)(C)N(C)C)CC3)C(=O)N3CCCC(N3)C(=O)OCC(C)(C)C2)C1
101

Given NC1c2ccccc2OC12CCN(c1cnc3c(N4CCCc5ncccc54)n[nH]c3n1)CC2 (stereo not given) + CCn1c(-c2cc(N3CCN(C)CC3)cnc2C(C)OC)c2c3cc(ccc31)-c1csc(n1)CC(NC(=O)C1CC1C)C(=O)N1CCCC(N1)C(=O)OCC(C)(C)C2 , respond with its viability, T/C.
91.7

Please report viability, T/C for the following compound: CC(C)NCC(C(=O)N1CCN(c2ncnc3c2C(C)CC3O)CC1)c1ccc(Cl)cc1 (stereo not given) + CCn1c(-c2cc(N3CCN(C)CC3)cnc2C(C)OC)c2c3cc(ccc31)-c1csc(n1)CC(NC(=O)C1CC1C)C(=O)N1CCCC(N1)C(=O)OCC(C)(C)C2
103

Kindly indicate its recorded viability, T/C. Item: CC(Nc1ccc2c(c1)OCCn1cc(N3C(=O)OCC3C(F)F)nc1-2)C(N)=O (stereo not given) + CCn1c(-c2cc(N3CCN(C)CC3)cnc2C(C)OC)c2c3cc(ccc31)-c1csc(n1)CC(NC(=O)C1CC1C)C(=O)N1CCCC(N1)C(=O)OCC(C)(C)C2
96.8

Look up and report measured viability, T/C for this entry: CCC(CC)c1cc(NC2CCC(N)C2)n2nccc2n1 (stereo not given) + CCn1c(-c2cc(N3CCN(C)CC3)cnc2C(C)OC)c2c3cc(ccc31)-c1csc(n1)CC(NC(=O)C1CC1C)C(=O)N1CCCC(N1)C(=O)OCC(C)(C)C2
102

Identify viability, T/C associated with the compound C[C@@H](NC(=O)c1ncnc(N)c1Cl)c1ncc(C(=O)Nc2cc(C(F)(F)F)c(Cl)cn2)s1 + CCn1c(-c2cccnc2C(C)OC)c2c3cc(ccc31)N1CCOC(CC(NC(=O)C(C(C)C)N(C)C(=O)C3(F)CCN(C(=O)C#CC(C)(C)N(C)C)CC3)C(=O)N3CCCC(N3)C(=O)OCC(C)(C)C2)C1
105

----------
viability, T/C: recorded values
tested on: 362531-283-R-J2-PDC complex spheroid viability; assay: Anticancer human tumor 362531-283-R-J2-PDC cell line growth inhibition [RAS]; conditions: compound 0.1 µM; stronger effect = lower value;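 note: spheroids exposed to the agents for 7 days before readout; luminescence viability as percent of DMSO vehicle control wells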

- compound: "Nc1ccn(C2OC(CO)C(O)C2(F)F)c(=O)n1 (stereo not drawn)"
  system_under_test: "362531-283-R-J2-PDC complex spheroid viability"
  viability, T/C: "70.5% [middle of 4 runs]"

Answer with reported viability, T/C of C[C@@H](NC(=O)c1ncnc(N)c1Cl)c1ncc(C(=O)Nc2cc(C(F)(F)F)c(Cl)cn2)s1
102% [middle of 4 runs]

Entry CC(C)NCC(C(=O)N1CCN(c2ncnc3c2C(C)CC3O)CC1)c1ccc(Cl)cc1 (stereo not drawn) needs its viability, T/C filled in; supply it.
103% [middle of 4 runs]

Input CC(Nc1ccc2c(c1)OCCn1cc(N3C(=O)OCC3C(F)F)nc1-2)C(N)=O (stereo not drawn) , output reported viability, T/C.
97.1% [middle of 4 runs]

Give the measured viability, T/C for C#Cc1c(F)ccc2cc(O)cc(-c3ncc4c(N5CC6CCC(C5)N6)nc(OCC56CCCN5CC(F)C6)nc4c3F)c12 (stereo not drawn)
101% [middle of 8 runs]

For C=CC(=O)N1CCN(c2nc(OCC3CCCN3C)nc3c(F)c(-c4nc(N)cc(C)c4C(F)(F)F)c(Cl)cc23)C(C)C1 (stereo not drawn) , write its viability, T/C.
102% [middle of 12 runs]

Give recorded viability, T/C. CC(=O)OC12COC1CC(O)C1(C)C(=O)C(O)C3=C(C)C(OC(=O)C(O)C(NC(=O)OC(C)(C)C)c4ccccc4)CC(O)(C(OC(=O)c4ccccc4)C21)C3(C)C (stereo not drawn)
90.8% [middle of 4 runs]

Provide only the value of recorded viability, T/C for Cc1nc(N2CCC3(CC2)COC(C)C3N)c(CO)nc1Sc1ccnc(N)c1Cl (stereo not drawn)
107% [middle of 4 runs]

----------
test system: 362531-283-R-J2-PDC complex spheroid viability; test: Anticancer human tumor 362531-283-R-J2-PDC cell line growth inhibition [RAS]; conditions: second compound 0.003 µM; first compound 0.1 µM; stronger effect = lower value;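 note: spheroids exposed to the agents for 7 days before readout; luminescence viability as percent of DMSO vehicle control wells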
Overview of recorded viability, T/C for various compounds
Supply the numeric figure in %, leaving out any unit text.

- compound: "CC(=O)OC12COC1CC(O)C1(C)C(=O)C(O)C3=C(C)C(OC(=O)C(O)C(NC(=O)OC(C)(C)C)c4ccccc4)CC(O)(C(OC(=O)c4ccccc4)C21)C3(C)C (configuration not stated) + CCn1c(-c2cccnc2C(C)OC)c2c3cc(ccc31)N1CCOC(CC(NC(=O)C(C(C)C)N(C)C(=O)C3(F)CCN(C(=O)C#CC(C)(C)N(C)C)CC3)C(=O)N3CCCC(N3)C(=O)OCC(C)(C)C2)C1"
  unit: "%"
  viability, T/C: 94.6

// switching to the query compound
Write down viability, T/C measured for item CC(C)n1nc(-c2ccc3oc(N)nc3c2)c2c(N)ncnc21 + CCn1c(-c2cc(N3CCN(C)CC3)cnc2C(C)OC)c2c3cc(ccc31)-c1csc(n1)CC(NC(=O)C1CC1C)C(=O)N1CCCC(N1)C(=O)OCC(C)(C)C2
40

----------
Listing of recorded viability, T/C by entry.
tested on: 362531-283-R-J2-PDC complex spheroid viability; experiment: Anticancer human tumor 362531-283-R-J2-PDC cell line growth inhibition [RAS]; conditions: second compound 0.003 µM; first compound 1 µM; stronger effect = lower value;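 note: spheroids exposed to the agents for 7 days before readout; luminescence viability as percent of DMSO vehicle control wells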
The reply should contain only the number, in %.

- molecule: "CCC(CC)c1cc(NC2CCC(N)C2)n2nccc2n1 (configuration not stated) + CCn1c(-c2cc(N3CCN(C)CC3)cnc2C(C)OC)c2c3cc(ccc31)-c1csc(n1)CC(NC(=O)C1CC1C)C(=O)N1CCCC(N1)C(=O)OCC(C)(C)C2"
  unit: "%"
  viability, T/C: 98.4

Moving on to the next molecule.
GET viability, T/C where system = 362531-283-R-J2-PDC complex spheroid viability and item = CCN1CCN(Cc2ccc(Nc3ncc(F)c(-c4cc(F)c5nc(C)n(C(C)C)c5c4)n3)nc2)CC1 + CCn1c(-c2cc(N3CCN(C)CC3)cnc2C(C)OC)c2c3cc(ccc31)-c1csc(n1)CC(NC(=O)C1CC1C)C(=O)N1CCCC(N1)C(=O)OCC(C)(C)C2
43.1
